Data origin: PubChem BioAssay (NCI)

Test system: SF-295 CNS
measurement.protocol: NCI-60 one-dose screen, 48 h
particulars: 10 µM unless noted
Compounds without any hit were thinned out: in the full panel of roughly 83,000, 20% have a hit. Calls of active or inactive are those of the source. The calls were made as follows: active = growth percent below 10; inactive = the rest.
Form entry, call: pick from class 1 for active, class 0 for inactive

Each compound tested received a call. Report the one for `O=C1NC(=O)C(=C/C=C/c2ccccc2)C(=O)N1` .
class 0

Any idea what this test logged for CN1CCC2(CC1)C(C#N)C(=O)NC(=O)C2C#N (stereo unspecified) ?
class 0

Could you check what this test reported for `CNC(=O)Oc1ccc(Cl)cc1SSc1cc(Cl)ccc1OC(=O)NC` ?
class 0

What did this assay record as the result for `C[C@@]12CCCc3coc(c31)C(=O)c1cc3c(cc12)C(=O)C1=C(NCCS1(=O)=O)C3=O` ?
class 1

For `CNC(=O)O/N=C(\SC)C(=O)N(C)C` , which call appears in the assay record?
class 0
